- Tested on: MC3-R (Homo sapiens)
- Protocol: Competitive inhibition binding assay, 125I-NDP-α-MSH, MC3-R
- Design: expressed in transfected cells
- Condition details: 1 μM compound; inhibition of 125I-NDP-α-MSH binding; mean of triplicates; results less than 0% reported as 0%
Non-standard residues stand in square brackets, D forms with d. Residues, ends and D or L forms follow the SMILES beside them. *: point of attachment. Hyp = O=C(O)[C@@H]1C[C@@H](O)CN1; NH(CH2)3NH2 = NCCCN*; Bn = c1ccc(C*)cc1
Recorded metric: Inhibition at 1 μM MC3-R

Worked cases, Inhibition at 1 μM MC3-R given:
Molecule	Inhibition at 1 μM MC3-R
NCCCC[C@H]1C(=O)N2C(CC[C@@H]2COc2ccc3ccccc3c2)N1C(=O)[C@@H](Cc1ccccc1Cl)NCc1ccccc1 (stereo partly drawn)	13%
CC(=O)NCCCC[C@H]1C(=O)N(CCc2ccc3ccccc3c2)CCN1C(=O)[C@H](N)Cc1ccc(Cl)cc1Cl	3%
NCCCNC(=O)[C@@H]1C[C@@H](OCc2ccccc2)CN1C(=O)[C@@H](Cc1ccccc1)NC(=O)c1ccc(CN)cc1	0%
CS(=O)(=O)NCCC[C@H]1C(=O)N(CCc2ccc3ccccc3c2)CCN1C(=O)[C@@H](Cc1ccc(Cl)cc1Cl)NC(=O)[C@@H](N)COCc1ccccc1	9%
CCCCCCC(=O)N[C@@H](Cc1cnc[nH]1)C(=O)N[C@H](Cc1ccccc1)C(=O)N1C[C@H](OCc2ccccc2)C[C@H]1C(=O)NCCCNC(=N)N	7%

Then there is this molecule:
Lookup: Give the measured Inhibition at 1 μM MC3-R of C[C@H](N)C(=O)N[C@@H](Cc1cnc[nH]1)C(=O)N[C@H](Cc1ccccc1)C(=O)N1C[C@H](OCc2ccccc2)C[C@H]1C(=O)NCCCN [Example 135] (H-AH[dF][Hyp](Bn)-{NH(CH2)3NH2}) .
Found: 0%

---

- Tested on: MC3-R (Homo sapiens, UniProt P41968)
- Sequence (P41968 whole entry): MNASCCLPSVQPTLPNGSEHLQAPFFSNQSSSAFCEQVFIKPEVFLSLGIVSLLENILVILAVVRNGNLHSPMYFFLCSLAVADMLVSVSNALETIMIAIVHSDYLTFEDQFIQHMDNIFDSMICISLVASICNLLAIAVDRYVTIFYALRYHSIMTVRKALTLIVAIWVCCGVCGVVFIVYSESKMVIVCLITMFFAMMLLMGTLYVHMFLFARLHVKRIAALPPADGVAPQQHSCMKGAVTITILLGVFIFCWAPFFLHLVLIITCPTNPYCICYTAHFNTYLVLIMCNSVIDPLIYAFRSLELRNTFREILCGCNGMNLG
- Protocol: Competitive inhibition binding assay, 125I-NDP-α-MSH, MC3-R
- Parameters: expressed in transfected cells
- Condition details: 1 μM compound; inhibition of 125I-NDP-α-MSH binding; mean of triplicates; results less than 0% reported as 0%
Recorded metric: Inhibition at 1 μM MC3-R (%)
Response body: numeric value in %, unit text excluded.

Reference set, count: 5
> print(dat)
                                   molecule                             tested.on  readout.units  reported.result
1  NC(=O)NCCCC[C@H]1C(=O)N(CCc2ccc3ccccc3c2)CCN1C(=O)[C@H](N)Cc1ccc(Cl)cc1Cl  MC3-R (Homo sapiens, UniProt P41968)              %               15
2  N=C(N)NCCCC1C(=O)N(CCc2c[nH]c3ccccc23)CCN1C(=O)C(Cc1ccccc1Cl)NC(=O)C1CCC(c2ccccc2)N1 (stereo not drawn)  MC3-R (Homo sapiens, UniProt P41968)              %               22
3  Cc1ccc(CCN2CCN(C(=O)[C@H](N)Cc3ccc(Cl)cc3)[C@@H](CCCNC(=N)N)C2=O)cc1  MC3-R (Homo sapiens, UniProt P41968)              %                9
4  NCCCNC(=O)[C@@H]1C[C@@H](OCc2ccccc2)CN1C(=O)[C@@H](Cc1ccccc1)NC(=O)[C@@H](N)Cc1ccc2ccccc2c1  MC3-R (Homo sapiens, UniProt P41968)              %                0
5  Cc1ccc(CCN2CCN(C(=O)[C@H](N)Cc3ccc(Cl)cc3Cl)[C@@H](CCCNC(=N)N)C2=O)cc1  MC3-R (Homo sapiens, UniProt P41968)              %               42

Lookup: Would you mind telling me what Inhibition at 1 μM MC3-R value was observed for COC(=O)NCCC[C@H]1C(=O)N(CCc2ccc3ccccc3c2)CCN1C(=O)[C@@H](Cc1ccc(Cl)cc1Cl)NC(=O)[C@@H](N)COCc1ccccc1 ?
Found: 0
